# credit: paper PMC4434323

# assayed_target: dmd-6 (F13G11.1) (Caenorhabditis elegans) (UniProt O62159)
# Sequence: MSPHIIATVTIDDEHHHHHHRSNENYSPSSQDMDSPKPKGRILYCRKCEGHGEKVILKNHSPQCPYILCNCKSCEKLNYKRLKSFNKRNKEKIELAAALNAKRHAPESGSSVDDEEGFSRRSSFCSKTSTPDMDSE
Measured binding signal (PBM E-score (-0.5 to 0.5)) values are reported for all entries that follow.
Please reply with the number alone, leaving off any unit.

biosequence | numeric_readout
AAATTTAT (double strand) [8-mer AAATTTAT] | 0.479
AAAAATTT (double strand) [8-mer AAAAATTT] | 0.481
AAAAAGTT (double strand) [8-mer AAAAAGTT] | 0.484

Query sequence follows.
sequence AATTTATA (double strand) [8-mer AATTTATA] , binding signal (PBM E-score (-0.5 to 0.5)) observed: 0.471
